assay.comment: MTT cytotoxicity assay, HF-P4
Format: cell-based, human
applied.conditions: human, HF-P4 normal human dermal fibroblasts, HF-P4, 20 uM, repeats, read-out: Cell viability %
measurement.label: viability at 48 h, 20 µM (%)
Write down the numeric answer in % and omit the unit.

Guide cases for viability at 48 h, 20 µM, answers given:
{"columns": ["compound", "viability at 48 h, 20 µM, %"],
 "data": [
  ["COc1cccc(/C=N/NC(=O)c2ccc(-c3cc4c(cc(-c5ccc(C(=O)N/N=C/c6cccc(OC)c6O)cc5)n4-c4ccc(C)cc4)n3-c3ccc(C)cc3)cc2)c1O [Compound 5]", 52.2],
  ["Cc1ccc(-n2c(-c3ccc(C(=O)N/N=C/c4ccc(O)cc4O)cc3)cc3c2cc(-c2ccc(C(=O)N/N=C/c4ccc(O)cc4O)cc2)n3-c2ccc(C)cc2)cc1 [Compound 4]", 36.4]
]}

Shift focus to the following entry.
For this compound ( CCN(CC)c1ccc(/C=N/NC(=O)c2ccc(-c3cc4c(cc(-c5ccc(C(=O)N/N=C/c6ccc(N(CC)CC)cc6O)cc5)n4-c4ccc(C)cc4)n3-c3ccc(C)cc3)cc2)c(O)c1 [Compound 2] ), measured viability at 48 h, 20 µM is 60.3

Values compiled from paper PMC9505425.
